// data source = the supplement of paper PMC10498489

- Test system: HepG2 Srxn1-GFP reporter cells (+30 nM CDDO-Me)
- procedure.details: Srxn1-GFP intensity median modified Z-score relative to plate median; higher = stronger NRF2 / oxidative stress reporter activation, active = hit call of the paper
- setup.conditions: 10 µM; exposure time: 24h
The whole screen tested about 2,300 compounds, of which about 330 (14%) showed activity. Only a sample is shown.
# if value of Srxn1-GFP intensity median modified Z-score reaches 0.4, tag true (1); if it stays below, tag false (0)

For orientation, consider the following solved cases.
q: Is Srxn1-GFP intensity median modified Z-score for CC(C)(CO)C(=O)C(O)NCCCO (stereo not drawn) at or above 0.4?
a: false (0)

q: Could you verify whether the entry C[C@]12C=CC(=O)CC1=CCC1C2[C@@H](O)C[C@@]2(C)C1CC[C@]2(O)C(=O)CO (stereo partly drawn) shows Srxn1-GFP intensity median modified Z-score of no less than 0.4?
a: false (0)

q: Check if Srxn1-GFP intensity median modified Z-score >= 0.4 (inclusive). Item: CCOC(=O)C1=C(C)N=C(C)C(C(=O)OC)C1c1cccc([N+](=O)[O-])c1 (stereo not drawn)
a: false (0)

q: Is reported Srxn1-GFP intensity median modified Z-score greater than or equal to 0.4 here: CCOC(=O)C1=C(COCCN)N=C(C)C(C(=O)OC)C1c1ccccc1Cl (stereo not drawn)
a: true (1)

q: Test whether the compound CC(=O)O[C@@H]1C[C@@]23C[C@@]24CC[C@H](O[C@@H]2OC[C@@H](O)[C@H](O)[C@H]2O)C(C)(C)C4CCC3[C@]2(C)C[C@@H]3OC4(C[C@@H](C)[C@@H]3[C@@]12C)O[C@H](O)[C@]1(C)O[C@H]41 (stereo partly drawn) records Srxn1-GFP intensity median modified Z-score of 0.4 or higher.
a: true (1)

More entries:
q: Exam item: decide whether the reported Srxn1-GFP intensity median modified Z-score for `CCCCOC(=O)c1ccc(N)cc1` is at least 0.4.
a: false (0)

q: Does Srxn1-GFP intensity median modified Z-score meet or surpass 0.4 for CCC1C(=O)OC[C@@H]1Cc1cncn1C (stereo partly drawn) ?
a: true (1)

q: Can `CCCCNc1ccc(C(=O)OCCN(C)C)cc1` be said to have Srxn1-GFP intensity median modified Z-score at or above 0.4?
a: false (0)

* * *

- System: HepG2 Srxn1-GFP reporter cells (+30 nM CDDO-Me)
- procedure.details: Srxn1-GFP intensity median modified Z-score relative to plate median; higher = stronger NRF2 / oxidative stress reporter activation, active = hit call of the paper
- setup.conditions: 10 µM; exposure time: 24h
About 330 (14%) of roughly 2,300 compounds showed activity. The list is a sample of the results.
Cut-off 0.3 on Srxn1-GFP intensity median modified Z-score, inclusive. At or above means YES; below means NO.

Worked set:
q: API: above_or_equal(metric=Srxn1-GFP intensity median modified Z-score, cutoff=0.3) for item `CCCCCCCCCCCCC[N+](C)(C)Cc1ccccc1`
a: YES

q: # check: Srxn1-GFP intensity median modified Z-score of `O=C(O)c1ccc[nH]c1=Nc1cccc(C(F)(F)F)c1` is greater than or equal to 0.3
a: NO

q: Hi team, for COc1ccc(C2COc3c(ccc(O)c3OC)C2)c(OC)c1O (centres undefined) , is the recorded Srxn1-GFP intensity median modified Z-score at or above 0.3?
a: YES

q: Is it the case that CCCCC(O)c1ccccc1 (centres undefined) has Srxn1-GFP intensity median modified Z-score reaching or exceeding 0.3?
a: NO

q: Evaluate `CC(=O)N=c1[nH]cc([N+](=O)[O-])s1` : Srxn1-GFP intensity median modified Z-score at minimum 0.3?
a: NO

q: Tell me whether Srxn1-GFP intensity median modified Z-score is at least 0.3 here: CC(=O)OC1=C2C(C)C(O)CC(O)(C(OC(=O)c3ccccc3)C3C4(OC(C)=O)COC4CC(O)C3(C)C1=O)C2(C)C (centres undefined)
a: NO

More entries:
q: Srxn1-GFP intensity median modified Z-score >= 0.3 for CC1OC(n2cc(F)c(=O)[nH]c2=O)C(O)C1O (centres undefined) ?
a: NO

q: Does Srxn1-GFP intensity median modified Z-score meet or surpass 0.3 for `CC(C)(C)CC(C)(C)c1ccc(OCCOCC[N+](C)(C)Cc2ccccc2)cc1` ?
a: YES

q: Determine whether measured Srxn1-GFP intensity median modified Z-score meets or exceeds 0.3 for CCOC(=O)OC(C)OC1=C(C(=O)N=c2cccc[nH]2)N(C)S(=O)(=O)c2ccccc21 (centres undefined)
a: NO

q: Dear colleague, could you confirm whether `CCCCCCCCCCCCCCCC[N+](C)(C)CCN(Cc1ccc(OC)cc1)c1ncccn1` has Srxn1-GFP intensity median modified Z-score at or above 0.3?
a: YES

q: Textbook exercise: given the entry C=CC1=C(C(=O)O)N2C(=O)C(NC(=O)C(=NO)c3csc(=N)[nH]3)C2SC1 (centres undefined) , state whether its Srxn1-GFP intensity median modified Z-score is greater than or equal to 0.3.
a: NO

q: Evaluate `O=C1C=CC(=C(c2ccc(O)cc2)c2ccc(O)cc2)C=C1` : Srxn1-GFP intensity median modified Z-score at minimum 0.3?
a: YES

q: Quick check, Srxn1-GFP intensity median modified Z-score >= 0.3? `O=[N+]([O-])c1cccc2c[nH]nc12`
a: NO

* * *

- Test system: HepG2 Srxn1-GFP reporter cells (+30 nM CDDO-Me)
- procedure.details: Srxn1-GFP intensity median modified Z-score relative to plate median; higher = stronger NRF2 / oxidative stress reporter activation, active = hit call of the paper
- setup.conditions: 10 µM; exposure time: 24h
The whole screen tested about 2,300 compounds, of which about 330 (14%) showed activity. These entries were drawn from the full list.
Decide using Srxn1-GFP intensity median modified Z-score: a value greater than or equal to -0.3 is fulfilled, a smaller one is not fulfilled.

Below, 6 compounds whose answers are already recorded.
q: Please check the record N#C[C@@H]1C[C@@H]2C[C@@H]2N1C(=O)C(N)C12CC3CC(CC(O)(C3)C1)C2 (some centres not stated) and state if its Srxn1-GFP intensity median modified Z-score is at or above -0.3.
a: fulfilled

q: Item `CC[C@]12CCCN3CCc4c(n(c5ccccc45)[C@](O)(C(=O)OC)C1)[C@@H]32` with Srxn1-GFP intensity median modified Z-score of -0.3 or above?
a: fulfilled

q: In plain terms: is recorded Srxn1-GFP intensity median modified Z-score at least -0.3 for CC1(C)O[C@@H]2CC3C4CC=C5CC(=O)C=C[C@]5(C)[C@@]4(F)[C@@H](O)C[C@]3(C)[C@]2(C(=O)CO)O1 (some centres not stated) ?
a: not fulfilled

q: Check the entry CC(C)CC(N)C(=O)NC(C)C(=O)O (configuration not stated) : does Srxn1-GFP intensity median modified Z-score equal or exceed -0.3?
a: fulfilled

q: Entry `O[C@@H]1[C@H](O)CO[C@H]1O` : is its Srxn1-GFP intensity median modified Z-score no less than -0.3?
a: not fulfilled

q: Given the entry `O=C(O)c1cc(N=Nc2ccc(S(=O)(=O)N=c3cccc[nH]3)cc2)ccc1O` , answer whether its Srxn1-GFP intensity median modified Z-score meets or surpasses -0.3.
a: not fulfilled

New cases:
q: Is the recorded value of Srxn1-GFP intensity median modified Z-score equal to or greater than -0.3 for this compound? CC(=O)OC1CC(OC(C)=O)C2(C)C(CC(OC(C)=O)C3(C)C2CCC2(C)C(c4ccoc4)OC(=O)C4OC423)C1(C)C (configuration not stated)
a: fulfilled

* * *

- System: HepG2 Srxn1-GFP reporter cells (+30 nM CDDO-Me)
- procedure.details: Srxn1-GFP intensity median modified Z-score relative to plate median; higher = stronger NRF2 / oxidative stress reporter activation, active = hit call of the paper
- setup.conditions: 10 µM; exposure time: 24h
The campaign covered roughly 2,300 compounds. About 330 (14%) showed activity. Not all results are given here.
Catalogue of molecules with associated Srxn1-GFP intensity median modified Z-score
Write the value as a bare number.

CCCCCCCCCCCCCCCCC(C(=O)O)C(O)(CC(=O)O)C(=O)O (stereo not given) [euspeclibcmpd1735] has a reported Srxn1-GFP intensity median modified Z-score of 3.83

Kindly note the recorded Srxn1-GFP intensity median modified Z-score for C[C@]12CCC(=O)CC1=CC=C1C2CC[C@@]2(C)C1CC[C@@]21CCC(=O)O1 (stereo not given in full) [euspeclibcmpd726] , which is 0.642

Measured Srxn1-GFP intensity median modified Z-score of OCCN1CCN(CCCN2c3ccccc3Sc3ccc(Cl)cc32)CC1 [euspeclibcmpd640] : -1.43

Srxn1-GFP intensity median modified Z-score recorded for this molecule, CN1CCN(CCCN2c3ccccc3Sc3ccc(Cl)cc32)CC1 [euspeclibcmpd249] , is 3.78

Form: molecule = CCCCCCCCCCCCC(C(=O)O)C(C)C(=O)O (stereo not given) [euspeclibcmpd1524] ; Srxn1-GFP intensity median modified Z-score = 0.456

CC(C)(O)CC[C@@H](O)[C@](C)(O)[C@@H]1CC[C@@]2(O)C3=C(CC[C@]12C)[C@@]1(C)C[C@H](O)[C@H](O)CC1C(=O)C3 (stereo not given in full) [euspeclibcmpd1686] has a reported Srxn1-GFP intensity median modified Z-score of 0.91

Lab book: Srxn1-GFP intensity median modified Z-score of `CC(C)=CCOc1ccc2c(=O)c(-c3ccccc3)coc2c1` noted as 0.352

Short answer for CCCCCCCCCCCCCCC(C(=O)OC)C(O)(CC(=O)OC)C(=O)OC (stereo not given) [euspeclibcmpd2214] : Srxn1-GFP intensity median modified Z-score was -0.435

Further cases:
get_value(item= CC(C)CCCC(C)C1CCC2C3CC(=O)C4C[C@@H](O)CC[C@]4(C)C3CC[C@]12C (stereo not given in full) [euspeclibcmpd2198] , readout=Srxn1-GFP intensity median modified Z-score) returns -0.502

Briefly, Srxn1-GFP intensity median modified Z-score measured for CNCCCN1c2ccccc2CCc2ccccc21 [euspeclibcmpd86] : 1.22
